Assign IC50 to each entry below.
system: HIV-1 (H9IIIB or NL4-3 virus) replication in MT4-GFP cells; assay: microbe, parasite or virus in culture; type: cell-based; settings: Human immunodeficiency virus 1, NL43, MT4-GFP cells infected with HIV-1; 10% normal human serum; inhibition of reproductive ratio R0, 48-72 h post-infection; read-out: ViKinG IP (nM) with 10% NHS
Numbers only, in nM.

For every item below, please supply its IC50.
1. CN1C(=O)c2c(O)c(=O)c(-c3nnc(Cc4ccc(F)cc4F)s3)cn2N(C)C12CCSCC2 [Compound 25]
2. CCOC(=O)N1CCC2(CC1)N(CC)C(=O)c1c(O)c(=O)c(-c3nnc(Cc4ccc(F)cc4)s3)cn1N2C [Compound 5]
3. CCOC(=O)N1CCC2(CC1)N(C)C(=O)c1c(O)c(=O)c(-c3nnc(Cc4ccc(F)cc4)s3)cn1N2C [Compound 18]
4. CCN1C(=O)c2c(O)c(=O)c(-c3nnc(Cc4ccc(F)cc4F)s3)cn2N(C)C12CCN(C(C)=O)CC2 [Compound 10]
5. CCN1C(=O)c2c(O)c(=O)c(-c3nnc(Cc4ccc(F)cc4F)s3)cn2N(C)C12CCN(S(C)(=O)=O)CC2 [Compound 12]
6. CN1C(=O)c2c(O)c(=O)c(-c3nnc(Cc4ccc(F)cc4F)s3)cn2N(C)C12CCN(S(=O)(=O)N(C)C)CC2 [Compound 24]

[17, 22, 13, 57, 24, 6]
